system-under-test: human PSMA on tumor cells (LNCaP, MDA-PCA-2B, VCAP, 22Rv1) (human, UniProt Q04609 1-750)
Sequence (Q04609 whole entry): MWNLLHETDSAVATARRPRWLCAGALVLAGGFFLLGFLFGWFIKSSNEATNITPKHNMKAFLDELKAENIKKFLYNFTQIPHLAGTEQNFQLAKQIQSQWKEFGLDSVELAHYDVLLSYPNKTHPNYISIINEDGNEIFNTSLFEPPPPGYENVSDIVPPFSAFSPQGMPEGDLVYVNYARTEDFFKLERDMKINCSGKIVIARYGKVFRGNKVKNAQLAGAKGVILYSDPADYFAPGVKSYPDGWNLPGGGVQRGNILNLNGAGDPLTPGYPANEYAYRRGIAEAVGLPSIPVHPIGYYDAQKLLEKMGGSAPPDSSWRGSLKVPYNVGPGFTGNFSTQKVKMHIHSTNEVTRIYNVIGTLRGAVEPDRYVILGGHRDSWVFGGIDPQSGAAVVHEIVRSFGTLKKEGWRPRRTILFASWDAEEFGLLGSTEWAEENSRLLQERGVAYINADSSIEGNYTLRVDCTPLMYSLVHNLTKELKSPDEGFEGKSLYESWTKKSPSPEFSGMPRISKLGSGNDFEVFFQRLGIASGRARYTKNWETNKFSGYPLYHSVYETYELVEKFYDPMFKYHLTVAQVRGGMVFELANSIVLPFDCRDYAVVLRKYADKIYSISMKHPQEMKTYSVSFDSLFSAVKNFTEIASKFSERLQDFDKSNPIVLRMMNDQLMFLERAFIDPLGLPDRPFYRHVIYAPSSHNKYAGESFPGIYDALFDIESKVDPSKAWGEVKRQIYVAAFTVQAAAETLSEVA
test-details: cell-based or functional assay
reported-metric: LNCaP cells IC50 (nM), cytotoxicity of FN3 domain-drug conjugate
Just the number in nM, nothing appended.

Note LNCaP cells IC50 (nM), cytotoxicity of FN3 domain-drug conjugate for the binder shown: P233FR9P1001_H3-1 (designed binder, not shown: C-terminal poly-histidine tag) LPAPKNLVVSRVTEDSARLSWTAPDAAFDSFPIGYWEWDDDGEAIVLTVPGSERSYDLTGLKPGTEYHVYIAGVKGGQWSFPLSAIFTT
0.4

Please list LNCaP cells IC50 (nM), cytotoxicity of FN3 domain-drug conjugate recorded for the binder P233FR9_H10 (designed binder, also called H10 FN3 domain; P233FR9_10; not shown: C-terminal poly-histidine tag) LPAPKNLVVSRVTEDSARLSWTAPDAAFDSFAIGYWEWDDDGEAIVLTVPGSERSYDLTGLKPGTEYPVYIAGVKGGQWSFPLSAIFTT
0.5

Assign LNCaP cells IC50 (nM), cytotoxicity of FN3 domain-drug conjugate to the following record: P229CR5P819_H11 (designed binder, In the cytotoxicity assays it was conjugated to vc-MMAF (cysteine-maleimide chemistry or sortase reaction); also called P229CR9P819-H11; not shown: C-terminal poly-histidine tag) LPAPKNLVVSRVTEDSARLSWDIDEQRDWFDSFLIQYQESEKVGEAIVLTVPGSERSYDLTGLKPGTEYTVSIYGVYHVYRSSNPLSAIFTT
9.3

// Input: P234CR9_H01 (designed binder, not shown: C-terminal poly-histidine tag) LPAPKNLVVSRVTEDSARLSWEWWVIPGDFDSFLIQYQESEKVGEAIVLTVPGSERSYDLTGLKPGTEYTVSIYGVVNSGQWNDTSNPLSAIFTT . Output its LNCaP cells IC50 (nM), cytotoxicity of FN3 domain-drug conjugate only.
22.6
